Molecular target: … (SEQ ID NO: 1)-HLA-A*02 complex (human)
Test: cell-based or functional assay
observedProperty: EC50 (mel624), IFN-γ ELISPOT, T cell activation (nM)
Supply the numeric figure in nM, leaving out any unit text.

Examples with answers:
binder	unitsLabel	observedResult
ImmTAC molecule a109b46 (TCR-anti-CD3 fusion) (TCR, part only; not given: anti-CD3 scFv, linker, constant regions, not shown: a dimerising Fc or GST) TCR alpha, part: GDAKTTQPNSMESNEEEPVHLPCNHSTISGTDYIHWYRQLPSQGPEYVIHGLTSNVNNRMASLAIAEDRKSSTLILHRATLRDAAVYYCILILGHSRLGNYQATFGKGTKLSVIP TCR beta, part: DGGITQSPKYLFRKEGQNVTLSCEQNLNHDAMYWYRQDPGQGLRLIYYSQIMGDEQKGDIAEGYSVSREKKESFPLTVTSAQKNPTAFYLCASSWWTGGSAPIRFGPGTRLTVT	nM	0.0601
ImmTAC molecule a79b75 (TCR-anti-CD3 fusion) (TCR, part only; not given: anti-CD3 scFv, linker, constant regions, not shown: a dimerising Fc or GST) TCR alpha, part: GDAKTTQPNSMESNEEEPVHLPCNHSTISGTDYIHWYRQLPSQGPEYVIHGLTSNVNNRMASLAIAEDRKSSTLILHRATLRDAAVYYCILILGHSRLGNYIATFGKGTKLSVIP TCR beta, part: DGGITQSPKYLFRKEGQNVTLSCEQNLNHDAMYWYRQDPGQGLRLIYYSQIMGDEQKGDIAEGYSVSREKKESFPLTVTSAQKNPTAFYLCASSWWTGGSAPISFGPGTRLTVT	nM	0.0236

# context switch: different binder, same EC50 (mel624), IFN-γ ELISPOT, T cell activation
Lookup: I am curious: what EC50 (mel624), IFN-γ ELISPOT, T cell activation value has been reported for ImmTAC molecule a28b60 (TCR-anti-CD3 fusion) (TCR, part only; not given: anti-CD3 scFv, linker, constant regions, not shown: a dimerising Fc or GST) TCR alpha, part: GDAKTTQPNSMESNEEEPVHLPCNHSTISGTDYIHWYRQLPSQGPEYVIHGLTSNVNNRMASLAIAEDRKSSTLILHRATLRDAAVYYCILILGHSRAGNYIATFGKGTKLSVIP TCR beta, part: DGGITQSPKYLFRKEGQNVTLSCEQNLNHDAMYWYRQDPGQGLRLIYYSQIMGDEQKGDIAEGYSVSREKKESFPLTVTSAQKNPTAFYLCASSWWTGGASEISFGPGTRLTVT ?
Found: 0.0317
